src = PubChem BioAssay (NCATS)

- test_name: Cellular viability qHTS for adrenocortical cancer (ACC) cell line NCI-H295R (AID 1963990); further: nearly all actives have a fitted effect of over 60% in size
- reported_conditions: CellTiter-Glo ATP luminescence, 48 h; series mostly up to 46.1 µM
- From the text: PI: Naris Nilubol, MD Surgical Oncology Program, National Cancer Institute (NCI) National Institute of Health (NIH), Bethesda, Maryland Adrenocortical cancer (ACC) is a rare malignancy with poor survival outcomes and few treatment options. Currently, mitotane is the only FDA-approved therapy for ACC. […] Through a quantitative high-throughput drug screen (qHTS), we identified auranofin (AF), a thioredoxin reductase (TXNRD) inhibitor, as a promising candidate drug. […]
Records with an inconclusive call do not appear. Active and inactive are the calls of the source. The call rests on the fitted dose curve; in most records, active means well fitted cell-killing curve with a large enough effect; inconclusive means small, poorly fitted or top-dose-only effect; inactive means flat fitted curve, though single readings scatter.
Valid outcomes are listed here; reply with one: active, inactive

As a guide, the following entries are already answered.
O=C1CC[C@H](N2Cc3c(OCc4ccc(CN5CCOCC5)cc4)cccc3C2=O)C(=O)N1: inactive
Nc1nccc(-c2c(-c3ccc(F)cc3)ncn2C2CCCCC2)n1: inactive
COc1ccc2c(c1)C(=O)N(CCc1ccc(S(=O)(=O)NC(=O)NC3CCCCC3)cc1)C(=O)C2(C)C: inactive
O=C1NCN(c2ccccc2)C12CCN(CCCC(c1ccc(F)cc1)c1ccc(F)cc1)CC2: active
Cc1nc2n(c(=O)c1CCN1CCC(C(=O)c3ccc(F)cc3)CC1)CCS2: inactive
COc1ccc(S(=O)(=O)NCc2ccc(C(=O)NCCc3ccc(Cl)cn3)cc2)cc1: inactive
COc1ccc(-n2nc(CCC(=O)N(C)O)cc2-c2ccc(Cl)cc2)cc1: active
COc1ccc(-n2c(SCCCN3C(=O)c4cccc5cccc(c45)C3=O)nnc2-c2ccncc2)cc1: inactive
CC#CC(=O)N1CCC[C@H]1c1nc(-c2ccc(C(=O)Nc3ccccn3)cc2)c2c(N)nccn12: inactive
O=C(C1CCCCC1)N1CC(=O)N2CCCc3ccccc3C2C1 (stereo not given): active

Can you look up the reported call for COc1ccc(/C=C/C(=O)c2ccc(OC)cc2OC)cc1 for me?
active

Per the assay record, what outcome was assigned to CC(C)NC[C@@H](O)COc1cccc2ccccc12 ?
inactive

What call does the record list for NC(=S)N/N=C/c1ncccc1N ?
inactive

Lab log entry: OCCOCCN1CCN(C(c2ccccc2)c2ccc(Cl)cc2)CC1 (stereo not given) — outcome as called in the assay?
inactive

I'd appreciate the recorded outcome for Nc1n[n+]([O-])c2ccccc2[n+]1[O-] from this test.
active

====

- test_name: Cellular viability qHTS for adrenocortical cancer (ACC) cell line NCI-H295R (AID 1963990); further: nearly all actives have a fitted effect of over 60% in size
- reported_conditions: CellTiter-Glo ATP luminescence, 48 h; series mostly up to 46.1 µM
Inconclusive results are not listed. The source made the active and inactive calls. The call rests on the fitted dose curve; in most records, active means well fitted cell-killing curve with a large enough effect; inconclusive means small, poorly fitted or top-dose-only effect; inactive means flat fitted curve, though single readings scatter.
Would you mind answering with one of these outcomes? y for active, n for inactive

O=C(CCCN1CCC(O)(c2ccc(Br)cc2)CC1)c1ccc(F)cc1: n
CC(C)=CCC1C(=O)N(c2ccccc2)N(c2ccccc2)C1=O: y
CN1CCN(C2=Nc3cc(F)ccc3Cc3ccccc32)CC1: n

# outcome recorded in this test, key = Cc1c2oc3c(C)ccc(C(=O)N[C@@H]4C(=O)N[C@H](C(C)C)C(=O)N5CCC[C@H]5C(=O)N(C)CC(=O)N(C)[C@@H](C(C)C)C(=O)O[C@@H]4C)c3nc-2c(C(=O)N[C@@H]2C(=O)N[C@H](C(C)C)C(=O)N3CCC[C@H]3C(=O)N(C)CC(=O)N(C)[C@@H](C(C)C)C(=O)O[C@@H]2C)c(N)c1=O
y

Please indicate how the test categorized c1ccc(OCc2ccc(CCCN3CCOCC3)cc2)cc1 .
n

I'd appreciate the recorded outcome for CCOC(=O)N1CCC(Nc2ccc(Cl)cc2N)CC1 from this test.
y

How was NC(=O)n1c(O)c(C(=O)c2cccs2)c2cc(Cl)ccc21 classified in this test?
y

For N#Cc1ccc(Oc2ccc3c(c2)COB3O)cc1 , which call appears in the assay record?
n

Please indicate how the test categorized NS(=O)(=O)Oc1ccc2c3c(c(=O)oc2c1)CCCCC3 .
n

Dear all, I need the recorded test outcome for CN(C)CCOC(c1ccccc1)c1ccc(Br)cc1 (configuration not stated) , thank you.
y

Could you please tell me the result logged for CCc1cc(Nc2nccc(-c3c(-c4ccc(OC)c(C(=O)Nc5c(F)cccc5F)c4)nc4ccccn34)n2)c(OC)cc1N1CCC(N2CCN(S(C)(=O)=O)CC2)CC1 in this assay?
n

What did the test return for Nc1nc2ccccc2n1Cc1ccc(F)cc1 ?
n
